target: transferrin receptor (hTfR) (Homo sapiens, UniProt P02786); experiment: Intermolecular interaction evaluation test between transferrin receptor (hTfR) and peptide by surface plasmon resonance (SPR); assay type: binding; settings: binding to hTfR by SPR; Table 2 peptides; read-out: KD value (SPR) class
Sequence (P02786 whole entry): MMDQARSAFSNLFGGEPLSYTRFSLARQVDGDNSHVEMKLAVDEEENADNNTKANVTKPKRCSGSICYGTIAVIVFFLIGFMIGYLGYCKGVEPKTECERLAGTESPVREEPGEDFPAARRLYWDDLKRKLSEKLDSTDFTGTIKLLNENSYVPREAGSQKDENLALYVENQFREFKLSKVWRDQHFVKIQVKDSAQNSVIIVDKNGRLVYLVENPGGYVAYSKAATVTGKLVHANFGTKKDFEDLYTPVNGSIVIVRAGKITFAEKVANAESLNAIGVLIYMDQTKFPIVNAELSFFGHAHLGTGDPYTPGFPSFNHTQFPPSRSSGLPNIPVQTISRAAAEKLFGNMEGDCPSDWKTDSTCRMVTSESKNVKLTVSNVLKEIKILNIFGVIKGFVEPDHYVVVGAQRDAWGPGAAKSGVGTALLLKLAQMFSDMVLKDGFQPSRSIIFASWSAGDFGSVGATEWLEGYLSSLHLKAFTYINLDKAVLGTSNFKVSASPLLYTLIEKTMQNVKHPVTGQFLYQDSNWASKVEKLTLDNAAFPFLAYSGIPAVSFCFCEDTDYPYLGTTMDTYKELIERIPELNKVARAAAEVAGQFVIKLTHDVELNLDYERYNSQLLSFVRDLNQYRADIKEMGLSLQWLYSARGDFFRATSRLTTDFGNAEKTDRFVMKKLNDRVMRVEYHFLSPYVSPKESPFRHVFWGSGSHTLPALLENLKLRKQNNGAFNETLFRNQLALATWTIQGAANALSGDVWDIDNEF
reported-endpoint: Kd

I looked up CC[C@H](C)[C@@H]1NC(=O)[C@H](Cc2ccc(O)cc2)NC(=O)[C@H](Cc2ccc(O)cc2)NC(=O)[C@H](CC(N)=O)NC(=O)[C@H](Cc2cn(CCO)c3ccccc23)NC(=O)[C@H](C(C)C)NC(=O)[C@H](Cc2ccccc2)N(C)C(=O)[C@H](C(C)C)NC(=O)[C@H](C)NC(=O)CSC[C@@H](C(N)=O)NC(=O)[C@H](Cc2ccc(O)cc2)N(C)C(=O)[C@H](Cc2ccc(O)cc2)NC(=O)[C@H](CCCNC(=N)N)NC(=O)[C@H](CCCNC(=N)N)NC(=O)[C@H]([C@@H](C)CC)NC1=O and its Kd for transferrin receptor (hTfR) (Homo sapiens, UniProt P02786) was 1 to 100 nM

Reading of Kd for CC[C@H](C)[C@@H]1NC(=O)[C@H](Cc2ccc(O)cc2)NC(=O)[C@H](Cc2ccc(O)cc2)NC(=O)[C@H](CC(N)=O)NC(=O)[C@H](Cc2c[nH]c3ccccc23)NC(=O)[C@H](C(C)C)NC(=O)[C@H](Cc2ccccc2)NC(=O)[C@H](C(C)C)NC(=O)[C@H](C)NC(=O)CSC[C@@H](C(N)=O)NC(=O)[C@H](Cc2ccc(O)cc2)N(C)C(=O)[C@H](Cc2ccc(O)cc2)NC(=O)[C@H](CCCNC(=N)N)NC(=O)[C@H](CCCNC(=N)N)NC(=O)[C@H](CCC(=O)O)NC1=O with transferrin receptor (hTfR) (Homo sapiens, UniProt P02786): 1 to 100 nM

transferrin receptor (hTfR) (Homo sapiens, UniProt P02786) Kd of CC[C@H](C)[C@@H]1NC(=O)[C@H](Cc2ccc(O)cc2)NC(=O)[C@H](Cc2ccc(O)cc2)NC(=O)[C@H](CC(N)=O)NC(=O)[C@H](Cc2c[nH]c3ccccc23)NC(=O)[C@H](C(C)C)NC(=O)[C@H](Cc2ccccc2)NC(=O)[C@H](C(C)C)NC(=O)[C@H](C)NC(=O)CSC[C@@H](C(N)=O)NC(=O)[C@H](Cc2ccc(O)cc2)N(C)C(=O)[C@H](Cc2ccc(O)cc2)NC(=O)[C@H](CCCNC(=N)N)NC(=O)[C@H](CCC(=O)O)NC(=O)[C@H]([C@@H](C)CC)NC1=O is 1 to 100 nM

Tested system transferrin receptor (hTfR) (Homo sapiens, UniProt P02786); Kd recorded for CC[C@H](C)[C@@H]1NC(=O)[C@H](Cc2ccc(O)cc2)NC(=O)[C@H](Cc2ccc(O)cc2)NC(=O)[C@H](Cc2c[nH]cn2)NC(=O)[C@H](Cc2c[nH]c3ccccc23)NC(=O)[C@H](C(C)C)NC(=O)[C@H](Cc2ccccc2)N(C)C(=O)[C@H](C(C)C)NC(=O)[C@H](C)NC(=O)CSC[C@@H](C(N)=O)NC(=O)[C@H](Cc2ccc(O)cc2)N(C)C(=O)[C@H](Cc2ccc(O)cc2)NC(=O)[C@H](CCCNC(=N)N)NC(=O)[C@H](CCCNC(=N)N)NC(=O)[C@H]([C@@H](C)CC)NC1=O was 100 to 1000 nM

Log: transferrin receptor (hTfR) (Homo sapiens, UniProt P02786), compound CC[C@H](C)[C@@H]1NC(=O)[C@H](Cc2ccc(OC)cc2)NC(=O)[C@H](Cc2ccc(O)cc2)NC(=O)[C@H](CC(N)=O)NC(=O)[C@H](Cc2c[nH]c3ccccc23)N(C)C(=O)[C@H](C(C)C)NC(=O)[C@H](Cc2cccc(Cl)c2)N(C)C(=O)[C@H](CCC(=O)N[C@H](CCC(=O)O)C(=O)O)NC(=O)[C@H](C)NC(=O)CSC[C@@H](C(N)=O)NC(=O)[C@H](Cc2ccc(O)cc2)N(C)C(=O)[C@H](Cc2ccccc2)NC(=O)[C@@H](CCCNC(=N)N)NC(=O)[C@H](CCCNC(=N)N)NC(=O)[C@H]([C@@H](C)CC)NC1=O , Kd = 1 to 100 nM

====

Molecular target: transferrin receptor (hTfR) (Homo sapiens)
Test: Intermolecular interaction evaluation test between transferrin receptor (hTfR) and peptide by surface plasmon resonance (SPR)
Type: binding
Conditions: surface plasmon resonance, hTfR; read-out: KD value for hTfR by SPR (class symbol)
Experimental: For each of the various synthesized peptides, the intermolecular interaction of the peptide with the transferrin receptor (hTfR) was tested by surface plasmon resonance (SPR) according to the following method. The specific test method is as follows. […]
pKd: −log10 of the molar value.
Would you mind telling me the reported pKd of each entry?

Measured pKd of CC[C@H](C)[C@@H]1NC(=O)[C@H](Cc2ccc(OC)cc2)NC(=O)[C@H](Cc2ccc(O)cc2)NC(=O)[C@H](CC(N)=O)NC(=O)[C@H](Cc2c[nH]c3ccccc23)N(C)C(=O)[C@H](C(C)C)NC(=O)[C@H](Cc2cccc(Cl)c2)N(C)C(=O)[C@H](C(C)C)NC(=O)[C@H](C)NC(=O)CSC[C@@H](C(=O)NCCOCCOCCOCCOCCC(N)=O)NC(=O)[C@H](Cc2ccc(O)cc2)N(C)C(=O)[C@H](Cc2ccccc2)NC(=O)[C@@H](CCCNC(=N)N)NC(=O)C(C)(C)NC(=O)[C@H]([C@@H](C)CC)NC1=O [compound 354] : > 9.00

pKd reported for this compound CC[C@H](C)[C@@H]1NC(=O)[C@H](Cc2ccc(OC)cc2)NC(=O)[C@H](Cc2ccc(O)cc2)NC(=O)[C@H](CC(N)=O)NC(=O)[C@H](Cc2c[nH]c3ccccc23)N(C)C(=O)[C@H](C(C)C)NC(=O)[C@H](Cc2cccc(Cl)c2)N(C)C(=O)[C@H](C(C)C)NC(=O)[C@H](C)NC(=O)CSC[C@@H](C(N)=O)NC(=O)[C@H](Cc2ccc(O)cc2)N(C)C(=O)[C@H](Cc2ccccc2)NC(=O)[C@@H](CCCNC(=N)N)NC(=O)C2(CCN(C)CC2)NC(=O)[C@H]([C@@H](C)CC)NC1=O [compound 364] : 7.00 to 9.00

====

target: transferrin receptor (hTfR) (Homo sapiens, UniProt P02786); test: Intermolecular interaction evaluation test between transferrin receptor (hTfR) and peptide by surface plasmon resonance (SPR); assay type: binding; details: surface plasmon resonance, hTfR; read-out: KD value for hTfR by SPR (class symbol)
pKd: −log10 of the molar value.
reported-endpoint: pKd

The compound listed as CC[C@H](C)[C@@H]1NC(=O)[C@H](Cc2ccc(OC)cc2)NC(=O)[C@H](Cc2ccc(O)cc2)NC(=O)[C@H](CC(N)=O)NC(=O)[C@H](Cc2c[nH]c3ccccc23)N(C)C(=O)[C@H](C(C)C)NC(=O)[C@H](Cc2cccc(Cl)c2)N(C)C(=O)[C@H](C(C)C)NC(=O)[C@H](C)NC(=O)CSC[C@@H](C(N)=O)NC(=O)[C@H](Cc2ccc(O)cc2)N(C)C(=O)[C@H](CCC(=O)NCCCC[C@@H](NC)C(=O)O)NC(=O)[C@@H](CCCNC(=N)N)NC(=O)[C@H](CCCNC(=N)N)NC(=O)[C@H]([C@@H](C)CC)NC1=O [compound 390] shows pKd equal to 7.00 to 9.00

Please fill in: pKd reported for CC[C@H](C)[C@@H]1NC(=O)[C@H](Cc2ccc(O)cc2)NC(=O)[C@H](Cc2ccc(O)cc2)NC(=O)[C@H](CC(N)=O)NC(=O)[C@H](Cc2c[nH]c3ccccc23)N(C)C(=O)[C@H](C(C)C)NC(=O)[C@H](Cc2cccc(Cl)c2)N(C)C(=O)[C@@H]2CCCC(=O)NCCCCC[C@H](NC(=O)[C@H]([C@@H](C)CC)NC1=O)C(=O)N[C@@H](CCCNC(=N)N)C(=O)N[C@@H](Cc1ccc(O)cc1)C(=O)N(C)[C@@H](Cc1ccc(O)cc1)C(=O)N[C@H](C(N)=O)CSCC(=O)N[C@@H](C)C(=O)N2 [compound 410] = 7.00 to 9.00

For record CC[C@H](C)[C@@H]1NC(=O)[C@H](Cc2ccc(OC)cc2)NC(=O)[C@H](Cc2ccc(O)cc2)NC(=O)[C@H](CC(N)=O)NC(=O)[C@H](Cc2c[nH]c3ccccc23)N(C)C(=O)[C@H](C(C)C)NC(=O)[C@H](Cc2cccc(Cl)c2)N(C)C(=O)[C@H](C(C)C)NC(=O)[C@H](C)NC(=O)CSC[C@@H](C(=O)N[C@H](CCC(=O)O)C(N)=O)NC(=O)[C@H](Cc2ccc(O)cc2)N(C)C(=O)[C@H](Cc2ccccc2)NC(=O)[C@@H](CCCNC(=N)N)NC(=O)C(C)(C)NC(=O)[C@H]([C@@H](C)CC)NC1=O [compound 355] the listed pKd is 6.00 to 7.00

The compound listed as CC[C@H](C)[C@@H]1NC(=O)[C@H](Cc2ccc(OC)cc2)NC(=O)[C@H](Cc2ccc(O)cc2)NC(=O)[C@H](CC(N)=O)NC(=O)[C@H](Cc2c[nH]c3ccccc23)N(C)C(=O)[C@H](C(C)C)NC(=O)[C@H](Cc2cccc(Cl)c2)N(C)C(=O)[C@H](C(C)C)NC(=O)[C@H](C)NC(=O)CSC[C@@H](C(N)=O)NC(=O)[C@H](Cc2ccc(O)cc2)N(C)C(=O)[C@H](Cc2ccccc2)NC(=O)[C@@H](CCCNC(=N)N)NC(=O)C(C)(C)NC(=O)[C@H]([C@@H](C)CC)NC1=O [compound 353] shows pKd equal to 7.00 to 9.00
